Potency (pM) BaF3-mIL22R listing for selected binders.
TEST TARGET: T1, mouse IL22R on BaF3-mIL22R cells (mouse, UniProt Q80XZ4 16-581)
T1 sequence (looked up): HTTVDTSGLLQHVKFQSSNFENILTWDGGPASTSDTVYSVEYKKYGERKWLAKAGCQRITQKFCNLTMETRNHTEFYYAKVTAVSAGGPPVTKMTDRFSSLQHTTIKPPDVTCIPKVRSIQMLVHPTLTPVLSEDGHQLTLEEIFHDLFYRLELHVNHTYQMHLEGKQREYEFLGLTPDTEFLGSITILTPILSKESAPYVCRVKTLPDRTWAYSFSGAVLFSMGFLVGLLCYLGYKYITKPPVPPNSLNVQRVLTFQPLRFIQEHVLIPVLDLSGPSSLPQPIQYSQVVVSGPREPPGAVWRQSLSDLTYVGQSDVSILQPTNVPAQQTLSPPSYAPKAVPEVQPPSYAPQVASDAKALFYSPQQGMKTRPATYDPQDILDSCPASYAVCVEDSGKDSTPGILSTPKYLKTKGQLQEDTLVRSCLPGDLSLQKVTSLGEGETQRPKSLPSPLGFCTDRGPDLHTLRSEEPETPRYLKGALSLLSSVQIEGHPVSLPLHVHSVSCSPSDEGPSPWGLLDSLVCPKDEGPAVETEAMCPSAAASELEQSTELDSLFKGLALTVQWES
ASSAY SUMMARY: cell-based or functional assay
Kindly provide the numeric value in pM only, without the unit symbol.

Measured Potency (pM) BaF3-mIL22R, 196C2 (antibody, V domains shown, Vkappa-shuffled clone of 170B2 (keeps the 170B2 VH-CH1); also called VK_196C2) VH: EVQLVESGGGLVQPGGSLRLSCAASGFTFSSSWMYWVRQAPGKGLEFVSVINTRSGITHYVESVKGRFTISTDNAKNTLFLQMNSLKSEDTAVYYCATRIQGLIDYWGQGTQVTVSS VL: DIQMTQSPSSLSASLGDRVTITCQASQSISSLLAWYQQKPGQAPKLLIYGASRLQTGVPSRFSGSGSGTSFTLTISGVEAEDLATYYCLQDYSWPLTFGQGTKVELK : 870

Measured Potency (pM) BaF3-mIL22R, 197B7 (antibody, V domains shown, Vkappa-shuffled clone of 170B2 (keeps the 170B2 VH-CH1); also called VK_197B7) VH: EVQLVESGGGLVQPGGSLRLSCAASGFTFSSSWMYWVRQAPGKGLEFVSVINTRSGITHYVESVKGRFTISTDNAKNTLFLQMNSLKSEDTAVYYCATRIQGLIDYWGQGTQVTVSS VL: DIVMTQSPSSLSASLGDRVTITCQASQSIRSFIDWYQQKPGQAPKLLIYGTSRLETGVPSRFSGTGSGTSFTLTISGVEAEDLATYYCLQDYSWPLTFGQGTKVELK : 160

Measured Potency (pM) BaF3-mIL22R, 197G10 (antibody, V domains shown, Vkappa-shuffled clone of 170B2 (keeps the 170B2 VH-CH1); also called VK_197G10) VH: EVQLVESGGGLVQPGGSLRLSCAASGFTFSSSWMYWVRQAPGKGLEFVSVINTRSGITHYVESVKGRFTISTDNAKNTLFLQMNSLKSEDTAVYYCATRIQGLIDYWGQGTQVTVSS VL: DIQMTQSPSSMSASLGDSVTISCQASENIGTQLFWYQQNAGQPPKLLIYGASRLQTGVPSRFSGSGSGTTFTLTISGVETGDLATYYCLQDYSWPLTFGQGTKVELK : 790

Measured Potency (pM) BaF3-mIL22R, 196F8 (antibody, V domains shown, Vkappa-shuffled clone of 170B2 (keeps the 170B2 VH-CH1); also called VK_196F8) VH: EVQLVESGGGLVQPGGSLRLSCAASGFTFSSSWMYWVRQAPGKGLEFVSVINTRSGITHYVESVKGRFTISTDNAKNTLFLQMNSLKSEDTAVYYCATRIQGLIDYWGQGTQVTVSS VL: DIQMTQSPSSLSASLGDRVTITCQASQSISSMLAWYQQKPGQAPNLLIYGASRLQTGVPSRFSGSRSGTSFTLTISGVEAEDLATYYCLQDYSWPLTFGQGTKVELK : 105

Source listed as patent US20150203840A1.
